Hey, just so you know, these numbers are from patent US11466044B2.

tested on: Acinetobacter baumannii pittii AG225; assay: MIC by broth microdilution, Acinetobacter baumannii; format: cell-based; conditions: strain AG225 Acinetobacter baumannii pittii
Where a name gives a salt, the structure may show the parent alone.
Measured MIC accompanies every entry in the list below.
Give the quantity in µg/mL, number only.

A selection of reference data follows.
Compound	Tested On	MIC / µg/mL
NCC1OC(OC2C(N)CC(N)C(O)C2OC2OC(CO)C(OC3OC(CN)C(O)C(O)C3N)C2O)CC(O)C1O (centres unmarked) [Compound 173, 2′-Deamino-neomycin acetate salt]	Acinetobacter baumannii pittii AG225	1
NCC1O[C@H](O[C@@H]2C(O)[C@H](O[C@@H]3C(O)[C@H](N)CC(N)[C@H]3O[C@H]3OC(CO)[C@@H](CCO)C(O)[C@@H]3N)O[C@@H]2CO)C(N)C(O)[C@@H]1O (some centres unmarked)	Acinetobacter baumannii pittii AG225	2
CCNC1C(OC2C(N)CC(N)C(O)C2OC2OC(CO)C(OC3OC(CN)C(O)C(O)C3N)C2O)OC(CN)C(O)C1O (centres unmarked) [Compound 172, 2′-N-Ethyl-neomycin acetate salt]	Acinetobacter baumannii pittii AG225	1

Please look at the following compound next.
Indicate its recorded MIC; the compound in question is CC(C)(O)C1O[C@H](O[C@@H]2C(N)C[C@@H](N)C(O)[C@H]2O[C@@H]2O[C@H](CO)[C@H](O[C@H]3O[C@@H](CN)[C@@H](O)C(O)C3N)C2O)C(N)[C@@H](O)[C@@H]1O (some centres unmarked)
4
